# Test system: Leishmania donovani
# assayNotes: In vitro growth inhibitory activity against Leishmania donovani amastigotes at 37 degrees C under a 5% CO2 atmosphere for 96 hours
# Format: functional, organism-based
observedProperty: pIC50
As a rule, pIC50 stands for the negative log10 of the concentration, concentration in M.

Below are worked cases with known answers.
molecule="O=c1ccn(C2C=CC(CO[Si](c3ccccc3)(c3ccccc3)c3ccccc3)O2)c(=O)[nH]1 (centres undefined)" observedresult=4.89
molecule="CCOP(=O)(CC(=O)NCC1OC(n2ccc(=O)[nH]c2=O)CC1O)OCC (centres undefined)" observedresult=4.54
molecule=CC(C)(C)[Si](C)(C)O[C@H]1C[C@H](n2ccc(=O)[nH]c2=O)O[C@@H]1COC(c1ccccc1)(c1ccccc1)c1ccccc1 observedresult=4.77

We now examine a further molecule.
In: // pIC50 lookup, key: `CCCCC(=O)OC[C@H]1O[C@@H](n2ccc(=O)[nH]c2=O)C[C@@H]1O`
Out: 4.02

* * *

# System: Plasmodium falciparum
# assayNotes: In vitro inhibitory activity against Plasmodium falciparum as [3H]hypoxanthine (50 uL) incorporation at 37C
# Assay type: functional, organism-based
The entries below come with measured IC50 values attached.
Give the value, in units of µM, as a plain number.

In: // IC50 lookup, key: CC(C)(C)[Si](C)(C)OCC1C=CC(n2ccc(=O)[nH]c2=O)O1 (centres undefined)
Out: 51

In: // IC50 lookup, key: O=c1ccn(C2C=CC(COP(=O)(Oc3ccccc3)Oc3ccccc3)O2)c(=O)[nH]1 (centres undefined)
Out: 54

In: // IC50 lookup, key: O=c1ccn(C2C=CC(CO[Si](c3ccccc3)(c3ccccc3)c3ccccc3)O2)c(=O)[nH]1 (centres undefined)
Out: 1

In: // IC50 lookup, key: CC(C)(C)[Si](OCC1OC(n2ccc(=O)[nH]c2=O)CC1F)(c1ccccc1)c1ccccc1 (centres undefined)
Out: 8.8

* * *

# testedTarget: dUTP pyrophosphatase (Plasmodium falciparum 3D7) (UniProt Q8II92)
# Sequence (Q8II92 as listed by the source): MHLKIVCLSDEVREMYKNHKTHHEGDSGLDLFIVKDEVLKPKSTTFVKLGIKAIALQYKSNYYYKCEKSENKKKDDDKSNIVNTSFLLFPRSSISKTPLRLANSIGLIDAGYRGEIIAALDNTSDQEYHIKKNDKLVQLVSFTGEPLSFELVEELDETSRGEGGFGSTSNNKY
# assayNotes: Selectivity index for Plasmodium falciparum deoxyuridine 5'-triphosphate nucleotidohydrolase defined as (Ki Human)/(Ki Plasmodium falciparum)
In plain terms, low SI, meaning strictly below 10, gives Condition met, and everything else gives Condition not met.

compound="O=c1ccn(C2CC(O)C(CNP(=O)(Oc3ccccc3)Oc3ccccc3)O2)c(=O)[nH]1 (centres undefined)" testedtarget="dUTP pyrophosphatase (Plasmodium falciparum 3D7) (UniProt Q8II92)" categorylabel="Condition not met"

In: Lab note: SI threshold 10. Does this compound come in strictly under it? `CC(C)(C)[Si](C)(C)O[C@H]1C[C@H](n2ccc(=O)[nH]c2=O)O[C@@H]1CO`
Out: Condition met

* * *

The entries below come with measured log10(Ki) values attached.
# testedTarget: Deoxyuridine 5'-triphosphate nucleotidohydrolase, mitochondrial (Homo sapiens, UniProt P33316)
# Sequence (P33316 whole entry): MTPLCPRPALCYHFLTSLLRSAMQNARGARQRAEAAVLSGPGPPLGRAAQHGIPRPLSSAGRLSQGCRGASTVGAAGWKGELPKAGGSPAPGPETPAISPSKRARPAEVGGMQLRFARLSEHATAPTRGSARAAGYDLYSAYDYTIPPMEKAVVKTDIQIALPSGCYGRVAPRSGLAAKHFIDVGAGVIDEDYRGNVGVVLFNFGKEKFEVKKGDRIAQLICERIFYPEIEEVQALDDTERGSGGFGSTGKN
log10 Ki, µM

Below are worked cases with known answers.
molecule="O=c1ccn(C2CC(O)C(CNC(c3ccccc3)(c3ccccc3)c3ccccc3)O2)c(=O)[nH]1 (stereo not drawn)" observedresult=1.66
molecule=CC(C)(C)[Si](C)(C)O[C@H]1C[C@H](n2ccc(=O)[nH]c2=O)O[C@@H]1COS(N)(=O)=O observedresult=2.51
molecule="NS(=O)(=O)NC(=O)OCC1C=CC(n2ccc(=O)[nH]c2=O)O1 (stereo not drawn)" observedresult=2.90
molecule="CC(C)(C)[Si](OCC1OC(n2ccc(=O)[nH]c2=O)CC1F)(c1ccccc1)c1ccccc1 (stereo not drawn)" observedresult=2.91
molecule="O=c1ccn(C2C=CC(COC(c3ccccc3)(c3ccccc3)c3ccccc3)O2)c(=O)[nH]1 (stereo not drawn)" observedresult=2.20

In: // log10(Ki) lookup, key: O=c1ccn(C2CC(F)C(COC(c3ccccc3)(c3ccccc3)c3ccccc3)O2)c(=O)[nH]1 (stereo not drawn)
Out: 2.66

In: // log10(Ki) lookup, key: `O=c1ccn([C@H]2C[C@H](O)[C@@H](COC(c3ccccc3)(c3ccccc3)c3ccccc3)O2)c(=O)[nH]1`
Out: 1.26

In: // log10(Ki) lookup, key: `CC(C)(C)[Si](OC[C@H]1O[C@@H](n2ccc(=O)[nH]c2=O)C[C@@H]1O)(c1ccccc1)c1ccccc1`
Out: 2.91
